- system-under-test: bovine spleen Cathepsin B (Bos taurus)
- Construct: bovine spleen Cathepsin B (SigmaAldrich C6286, ≥10 units/mg protein); purchased SigmaAldrich C6286; host or cells: bovine spleen (tissue-derived)
- method-summary: Cathepsin B cleavage assay (UHPLC-HRMS Orbitrap analysis)
- Format: biochemical
- stated-conditions: 2 min incubation with Cathepsin B, 37 °C, pH 5.4, 5 μM, triplicate
Starred links: 1 amine or outer side, 2 acyl side, 3 side chain; linkers in the order of their positions; H or OH if unused. Non-standard residues stand in square brackets, D forms with d. Residues, ends and D or L forms follow the SMILES beside them. *: point of attachment. Paclitaxel(2'-OCO-DMEDA) = CC(=O)O[C@H]1C(=O)[C@@]2(C)[C@H]([C@H](OC(=O)c3ccccc3)[C@]3(O)C[C@H](OC(=O)[C@H](OC(=O)N(C)CCN(C)*)[C@@H](NC(=O)c4ccccc4)c4ccccc4)C(C)=C1C3(C)C)[C@]1(OC(C)=O)CO[C@@H]1C[C@@H]2O; Fmoc = O=C(OCC1c2ccccc2-c2ccccc21)*; PABC = O=C(OCc1ccc(N[*:1])cc1)[*:2]
reported-endpoint: % residual compound, Average % (%)

- compound: "CC(=O)O[C@H]1C(=O)[C@@]2(C)[C@H]([C@H](OC(=O)c3ccccc3)[C@]3(O)C[C@H](OC(=O)[C@H](OC(=O)N(C)CCN(C)C(=O)OCc4ccc(NC(=O)CNC(=O)[C@H](CC(C)C)NC(=O)[C@H](Cc5ccccc5)NC(=O)CNC(=O)OCC5c6ccccc6-c6ccccc65)cc4)[C@@H](NC(=O)c4ccccc4)c4ccccc4)C(C)=C1C3(C)C)[C@]1(OC(C)=O)CO[C@@H]1C[C@@H]2O [Compound 2, Fmoc-GFLG-PABC-diamine-PTX] (Fmoc-GFLG[PABC]-{Paclitaxel(2'-OCO-DMEDA)})"
  reported-endpoint: "% residual compound, Average %"
  measured-value: 99.63

====

- system-under-test: bovine spleen Cathepsin B (Bos taurus)
- Construct: bovine spleen Cathepsin B (SigmaAldrich C6286, ≥10 units/mg protein); purchased SigmaAldrich C6286; host or cells: bovine spleen (tissue-derived)
- method-summary: Cathepsin B cleavage assay (UHPLC-HRMS Orbitrap analysis)
- Type: biochemical
- stated-conditions: replicate R1, 15 min
Starred links: 1 amine or outer side, 2 acyl side, 3 side chain; linkers in the order of their positions; H or OH if unused. Non-standard residues stand in square brackets, D forms with d. Residues, ends and D or L forms follow the SMILES beside them. *: point of attachment. Paclitaxel(2'-OCO-DMEDA) = CC(=O)O[C@H]1C(=O)[C@@]2(C)[C@H]([C@H](OC(=O)c3ccccc3)[C@]3(O)C[C@H](OC(=O)[C@H](OC(=O)N(C)CCN(C)*)[C@@H](NC(=O)c4ccccc4)c4ccccc4)C(C)=C1C3(C)C)[C@]1(OC(C)=O)CO[C@@H]1C[C@@H]2O; Fmoc = O=C(OCC1c2ccccc2-c2ccccc21)*; PABC = O=C(OCc1ccc(N[*:1])cc1)[*:2]
# key: entry, value: % residual compound, % R1
reported-endpoint: % residual compound, % R1 (%)

- molecule: "CC(=O)O[C@H]1C(=O)[C@@]2(C)[C@H]([C@H](OC(=O)c3ccccc3)[C@]3(O)C[C@H](OC(=O)[C@H](OC(=O)N(C)CCN(C)C(=O)OCc4ccc(NC(=O)CNC(=O)[C@H](CC(C)C)NC(=O)[C@H](Cc5ccccc5)NC(=O)CNC(=O)OCC5c6ccccc6-c6ccccc65)cc4)[C@@H](NC(=O)c4ccccc4)c4ccccc4)C(C)=C1C3(C)C)[C@]1(OC(C)=O)CO[C@@H]1C[C@@H]2O [Compound 2, Fmoc-GFLG-PABC-diamine-PTX] (Fmoc-GFLG[PABC]-{Paclitaxel(2'-OCO-DMEDA)})"
  measured-value: 98.52
- molecule: "CC(=O)O[C@H]1C(=O)[C@@]2(C)[C@H]([C@H](OC(=O)c3ccccc3)[C@]3(O)C[C@H](OC(=O)[C@H](OC(=O)N(C)CCN(C)C(=O)OCc4ccc(NC(=O)CNC(=O)[C@H](CC(C)C)NC(=O)[C@@H]5CCCN5C(=O)CNC(=O)OCC5c6ccccc6-c6ccccc65)cc4)[C@@H](NC(=O)c4ccccc4)c4ccccc4)C(C)=C1C3(C)C)[C@]1(OC(C)=O)CO[C@@H]1C[C@@H]2O [Compound 1, Fmoc-GPLG-PABC-diamine-PTX] (Fmoc-GPLG[PABC]-{Paclitaxel(2'-OCO-DMEDA)})"
  measured-value: 85.04
- molecule: "CC(=O)O[C@H]1C(=O)[C@@]2(C)[C@H]([C@H](OC(=O)c3ccccc3)[C@]3(O)C[C@H](OC(=O)[C@H](OC(=O)N(C)CCN(C)C(=O)OCc4ccc(NC(=O)[C@H](C)NC(=O)[C@@H](NC(=O)OCC5c6ccccc6-c6ccccc65)C(C)C)cc4)[C@@H](NC(=O)c4ccccc4)c4ccccc4)C(C)=C1C3(C)C)[C@]1(OC(C)=O)CO[C@@H]1C[C@@H]2O [Compound 4, Fmoc-VA-PABC-diamine-PTX]"
  measured-value: 98.99

====

- system-under-test: bovine spleen Cathepsin B (Bos taurus, UniProt P07688)
- Construct: bovine spleen Cathepsin B (SigmaAldrich C6286, ≥10 units/mg protein); purchased SigmaAldrich C6286; host or cells: bovine spleen (tissue-derived)
- method-summary: Cathepsin B cleavage assay (UHPLC-HRMS Orbitrap analysis)
- Format: biochemical
- stated-conditions: 60 min incubation with Cathepsin B, 37 °C, pH 5.4, 5 μM, triplicate
Starred links: 1 amine or outer side, 2 acyl side, 3 side chain; linkers in the order of their positions; H or OH if unused. Non-standard residues stand in square brackets, D forms with d. Residues, ends and D or L forms follow the SMILES beside them. *: point of attachment. Paclitaxel(2'-OCO-DMEDA) = CC(=O)O[C@H]1C(=O)[C@@]2(C)[C@H]([C@H](OC(=O)c3ccccc3)[C@]3(O)C[C@H](OC(=O)[C@H](OC(=O)N(C)CCN(C)*)[C@@H](NC(=O)c4ccccc4)c4ccccc4)C(C)=C1C3(C)C)[C@]1(OC(C)=O)CO[C@@H]1C[C@@H]2O; Fmoc = O=C(OCC1c2ccccc2-c2ccccc21)*; PABC = O=C(OCc1ccc(N[*:1])cc1)[*:2]

- compound: "CC(=O)O[C@H]1C(=O)[C@@]2(C)[C@H]([C@H](OC(=O)c3ccccc3)[C@]3(O)C[C@H](OC(=O)[C@H](OC(=O)N(C)CCN(C)C(=O)OCc4ccc(NC(=O)[C@H](CCCNC(N)=O)NC(=O)[C@@H](NC(=O)OCC5c6ccccc6-c6ccccc65)C(C)C)cc4)[C@@H](NC(=O)c4ccccc4)c4ccccc4)C(C)=C1C3(C)C)[C@]1(OC(C)=O)CO[C@@H]1C[C@@H]2O [Compound 3, Fmoc-VCit-PABC-diamine-PTX]"
  % residual compound, Average % / %: 82.88
- compound: "CC(=O)O[C@H]1C(=O)[C@@]2(C)[C@H]([C@H](OC(=O)c3ccccc3)[C@]3(O)C[C@H](OC(=O)[C@H](OC(=O)N(C)CCN(C)C(=O)OCc4ccc(NC(=O)CNC(=O)[C@H](CC(C)C)NC(=O)[C@@H]5CCCN5C(=O)CNC(=O)OCC5c6ccccc6-c6ccccc65)cc4)[C@@H](NC(=O)c4ccccc4)c4ccccc4)C(C)=C1C3(C)C)[C@]1(OC(C)=O)CO[C@@H]1C[C@@H]2O [Compound 1, Fmoc-GPLG-PABC-diamine-PTX] (Fmoc-GPLG[PABC]-{Paclitaxel(2'-OCO-DMEDA)})"
  % residual compound, Average % / %: 68.45
- compound: "CC(=O)O[C@H]1C(=O)[C@@]2(C)[C@H]([C@H](OC(=O)c3ccccc3)[C@]3(O)C[C@H](OC(=O)[C@H](OC(=O)N(C)CCN(C)C(=O)OCc4ccc(NC(=O)[C@H](C)NC(=O)[C@@H](NC(=O)OCC5c6ccccc6-c6ccccc65)C(C)C)cc4)[C@@H](NC(=O)c4ccccc4)c4ccccc4)C(C)=C1C3(C)C)[C@]1(OC(C)=O)CO[C@@H]1C[C@@H]2O [Compound 4, Fmoc-VA-PABC-diamine-PTX]"
  % residual compound, Average % / %: 72.91

====

- system-under-test: bovine spleen Cathepsin B (Bos taurus)
- Construct: bovine spleen Cathepsin B (SigmaAldrich C6286, ≥10 units/mg protein); purchased SigmaAldrich C6286; host or cells: bovine spleen (tissue-derived)
- method-summary: Cathepsin B cleavage assay (UHPLC-HRMS Orbitrap analysis)
- Assay type: biochemical
- stated-conditions: 30 min incubation with Cathepsin B, 37 °C, pH 5.4, 5 μM, triplicate
Starred links: 1 amine or outer side, 2 acyl side, 3 side chain; linkers in the order of their positions; H or OH if unused. Non-standard residues stand in square brackets, D forms with d. Residues, ends and D or L forms follow the SMILES beside them. *: point of attachment. Paclitaxel(2'-OCO-DMEDA) = CC(=O)O[C@H]1C(=O)[C@@]2(C)[C@H]([C@H](OC(=O)c3ccccc3)[C@]3(O)C[C@H](OC(=O)[C@H](OC(=O)N(C)CCN(C)*)[C@@H](NC(=O)c4ccccc4)c4ccccc4)C(C)=C1C3(C)C)[C@]1(OC(C)=O)CO[C@@H]1C[C@@H]2O; Fmoc = O=C(OCC1c2ccccc2-c2ccccc21)*; PABC = O=C(OCc1ccc(N[*:1])cc1)[*:2]
# key: entry, value: % residual compound, Average %
reported-endpoint: % residual compound, Average % (%)

- compound: "CC(=O)O[C@H]1C(=O)[C@@]2(C)[C@H]([C@H](OC(=O)c3ccccc3)[C@]3(O)C[C@H](OC(=O)[C@H](OC(=O)N(C)CCN(C)C(=O)OCc4ccc(NC(=O)[C@H](CCCNC(N)=O)NC(=O)[C@@H](NC(=O)OCC5c6ccccc6-c6ccccc65)C(C)C)cc4)[C@@H](NC(=O)c4ccccc4)c4ccccc4)C(C)=C1C3(C)C)[C@]1(OC(C)=O)CO[C@@H]1C[C@@H]2O"
  system-under-test: "bovine spleen Cathepsin B (Bos taurus)"
  reported-endpoint: "% residual compound, Average %"
  measured-value: 88.90
- compound: "CC(=O)O[C@H]1C(=O)[C@@]2(C)[C@H]([C@H](OC(=O)c3ccccc3)[C@]3(O)C[C@H](OC(=O)[C@H](OC(=O)N(C)CCN(C)C(=O)OCc4ccc(NC(=O)CNC(=O)[C@H](CC(C)C)NC(=O)[C@@H]5CCCN5C(=O)CNC(=O)OCC5c6ccccc6-c6ccccc65)cc4)[C@@H](NC(=O)c4ccccc4)c4ccccc4)C(C)=C1C3(C)C)[C@]1(OC(C)=O)CO[C@@H]1C[C@@H]2O [Compound 1, Fmoc-GPLG-PABC-diamine-PTX] (Fmoc-GPLG[PABC]-{Paclitaxel(2'-OCO-DMEDA)})"
  system-under-test: "bovine spleen Cathepsin B (Bos taurus)"
  reported-endpoint: "% residual compound, Average %"
  measured-value: 73.35
- compound: "CC(=O)O[C@H]1C(=O)[C@@]2(C)[C@H]([C@H](OC(=O)c3ccccc3)[C@]3(O)C[C@H](OC(=O)[C@H](OC(=O)N(C)CCN(C)C(=O)OCc4ccc(NC(=O)CNC(=O)[C@H](CC(C)C)NC(=O)[C@H](Cc5ccccc5)NC(=O)CNC(=O)OCC5c6ccccc6-c6ccccc65)cc4)[C@@H](NC(=O)c4ccccc4)c4ccccc4)C(C)=C1C3(C)C)[C@]1(OC(C)=O)CO[C@@H]1C[C@@H]2O [Compound 2, Fmoc-GFLG-PABC-diamine-PTX] (Fmoc-GFLG[PABC]-{Paclitaxel(2'-OCO-DMEDA)})"
  system-under-test: "bovine spleen Cathepsin B (Bos taurus)"
  reported-endpoint: "% residual compound, Average %"
  measured-value: 95.35
- compound: "CC(=O)O[C@H]1C(=O)[C@@]2(C)[C@H]([C@H](OC(=O)c3ccccc3)[C@]3(O)C[C@H](OC(=O)[C@H](OC(=O)N(C)CCN(C)C(=O)OCc4ccc(NC(=O)[C@H](C)NC(=O)[C@@H](NC(=O)OCC5c6ccccc6-c6ccccc65)C(C)C)cc4)[C@@H](NC(=O)c4ccccc4)c4ccccc4)C(C)=C1C3(C)C)[C@]1(OC(C)=O)CO[C@@H]1C[C@@H]2O"
  system-under-test: "bovine spleen Cathepsin B (Bos taurus)"
  reported-endpoint: "% residual compound, Average %"
  measured-value: 76.32

The measured values listed here are drawn from paper PMC12444563.
